Source of measurements: PubChem BioAssay (NCI)

- System: KM12 colon
- experiment: NCI tumour cell line growth inhibition, 48 h; in the data active means GI50 below about 0.43 µM; inactive means the rest
I would appreciate it if you answered using one of these outcomes: 1 (yes) = active, 0 (no) = inactive

Exercise: Called result for Fc1ccc(-c2nnc3sc(-c4cc(Cl)cc(Cl)c4)nn23)cc1Cl
Key: 0 (no)

Exercise: Record lookup: outcome of this test for FC(F)(F)CNc1nccc(-c2cnn3ncccc23)n1 ?
Key: 0 (no)

Exercise: What outcome does the record of this test show for O=C(CNc1c(Cl)cccc1Cl)Nc1ccc(-c2nc3ccccc3s2)cc1 ?
Key: 0 (no)

Exercise: For this molecule, state the assay outcome: O=C1Nc2ccccc2C1(c1c[nH]c2ccccc12)c1c[nH]c2ccccc12
Key: 0 (no)

Exercise: What classification did CCn1cc(C(=O)N/N=C/c2ccc(Br)cc2)c(=O)c2cc(F)c(N3CCNC(C)C3)c(F)c21 (configuration not stated) end up with in this test?
Key: 0 (no)
